# Assay Text: qHTS for Inhibitors of the Functional Ribonucleoprotein Complex (vRNP) of Lymphocytic Choriomeningitis Arenaviruses (LCMV): Viability assay - alamar blue signal for LCMV Primary Screen (AID 1347085); also: nearly all actives have a fitted effect of over 80% in size
# Test Context: alamar blue viability counter-screen, LCMV vRNP screen cells; series mostly up to 57.5 µM
Records with an inconclusive call do not appear. Activity calls are given as the source filed them. Calls follow the shape of the full dose curve; tested in HEK293 reporter line.
Log the outcome using a class from active, inactive

Use the examples below as a reference point.
1. C[C@@]12C[C@@]3(O)O[C@@H](O1)[C@]1(COC(=O)c4ccccc4)[C@@H]3C[C@@]12O[C@@H]1O[C@H](CO)[C@@H](O)[C@H](O)[C@@H]1O | inactive
2. COC(=O)C1=CO[C@@H](O)[C@@H]2C(CO)=CC[C@H]12 | inactive
3. Cc1[nH]c(C=C2C(=O)Nc3ccc(S(=O)(=O)N(C)c4cccc(Cl)c4)cc32)c(C)c1C(=O)N1CCN(C)CC1 | inactive
4. CC(=CCOc1ccc2ccc(=O)oc2c1)C1=CC(=O)C(C)(C)O1 | inactive
5. CCCCCCCCCCCCCCCC(=O)NCCc1c[nH]c2ccccc12 | inactive

*Q* Could you kindly confirm the outcome this assay logged for Cc1ccc(NC(=O)C2(c3ccc4c(c3)OC(F)(F)O4)CC2)nc1-c1cccc(C(=O)O)c1 ?
*A* active

*Q* Likewise for O=c1onc2n1-c1cc(Br)ccc1OC2 ?
*A* inactive

*Q* Same lookup for Cc1cnc(C(=O)O)c[n+]1[O-] , please.
*A* inactive

*Q* # repeat for CC/C=C\[C@H](O)[C@H](O)C1=C(C)C(=O)[C@]2(O1)C(=O)N[C@@](OC)(C(=O)c1ccccc1)C2O (some centres not stated)
*A* inactive

*Q* What about this molecule? COc1cc2c(cc1OC)[C@H]1C(=O)c3ccc4c(c3O[C@H]1CO2)C[C@@H](C(C)(C)O)O4
*A* inactive

*Q* Would you mind doing CCCCCCCCCOC(C)=O as well?
*A* inactive

Provenance of the data: PubChem BioAssay (NCATS)
